Consider the following variants; for each one, report its protein stability index.
B1: CDC14A (parent)
chain: LWVQGDIFRSKLKNRPSSEGSINK

Variants of: B1
Experiment: protein stability index of a GFP-peptide fusion (GPS, HEK-293T) (PSI 1-6); higher = more stable;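 further: lentivirally expressed fusions sorted by FACS into six bins by GFP to DsRed ratio, PSI derived from sequencing read proportions per bin multiplied by bin number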
Conditions: c terminus: a fixed tail appended
Give bare numbers.

>>> experimental_value("L12R")
2.22
>>> experimental_value("Q4R")
1.87
>>> experimental_value("V3N")
2.71

Below are some variants; for each one, tell me its protein stability index.
1. L1Y
2. K24F
3. I7E

2.43
1.75
3.71

Parameter requested: protein stability index. Apply to each item below.
1. K13R
2. G5R
3. W2S
4. G20N
5. G5C
6. P16N
7. N14E

1: 2.67; 2: 2.35; 3: 4.49; 4: 2.76; 5: 2.3; 6: 2.51; 7: 2.7

Items follow; give protein stability index for each.
1. R9Y
2. G20C
3. R15T
4. R15F

[2.37, 2.82, 3.26, 2.39]
